The reported numbers originate from patent US12295938B2.

Test system: AR transcriptional activity
Measurement Description: MMTV-LUC luciferase reporter assay in 22RV1 cells, DHT+ (screening and IC50)
Assay type: cell-based
Condition Context: Homo sapiens, 10 uM, with DHT, control = 100
Where a name gives a salt, the structure may show the parent alone.
Measured Metric: activity at 10 µM (%)
# output: bare number, implied unit %

A selection of reference data follows.
Prompt line: What activity at 10 µM value was documented for this compound, COc1c(O)cc2c(c1O)C(=O)c1c(cc(C)c(O)c1OC)C2=O [Aurantio-obtusin] ?
Response line: 124

Prompt line: Then what about the compound COC(=O)[C@@]12OC[C@]34[C@H]([C@@H](O)[C@@H]1O)[C@@]1(C)CC(=O)C(O)=C(C)[C@@H]1C[C@H]3OC(=O)[C@H](OC(=O)/C=C(\C)C(C)C)[C@@H]24 [Bruceantin, bruceantin] ?
Response line: 3.9

Prompt line: Then what about the compound CCN(CC)Cc1cc(Nc2ccnc3cc(Cl)ccc23)ccc1O [Amodiaquine dihydrochloride dihydrate] ?
Response line: 102

Prompt line: Then what about the compound "COC(=O)c1c2c(c3ccccc3c1O)OC(C)(C)C=C2" ?
Response line: 112

Prompt line: Then what about the compound "COC(=O)[C@@]12OC[C@]34[C@H]([C@@H](O)[C@@H]1O)[C@@]1(C)CC(=O)C(O)=C(C)[C@@H]1C[C@H]3OC(=O)[C@H](OC(=O)CC(C)C)[C@@H]24" ?
Response line: 2.8

Further cases:
Prompt line: What activity at 10 µM value was documented for this compound, "C=C1[C@@H](O)[C@]2(O)OC[C@]34[C@H]2[C@@]2(C)[C@H](O)C(=O)C=C(C)[C@@H]2C[C@H]3OC(=O)[C@H](O)[C@@]14O" ?
Response line: 6.7

Prompt line: Then what about the compound "C=CCc1ccc(O)c(-c2cc(CC=C)ccc2O)c1" ?
Response line: 152

====

Tested on: AR-V7 transcriptional activity
Measurement Description: MMTV-LUC luciferase reporter assay in 22RV1 cells, DHT− (screening and IC50)
Assay type: cell-based
Condition Context: 22RV1 cells, 10 uM, no DHT; control = 100
Measured Metric: MMTV-LUC activity (%) DHT−

Prompt line: What MMTV-LUC activity (%) DHT− value was documented for this molecule, CC1=CC(=O)[C@@H](O)[C@]2(C)[C@H]3[C@@H](O)[C@H](O)[C@]4(CO)OC[C@@]35[C@@H](C[C@@H]12)OC(=O)[C@H](O)[C@]54O [Yadanziolide A] ?
Response line: 8.0 ± 0.6%

Further cases:
Prompt line: What MMTV-LUC activity (%) DHT− value was documented for this molecule, O=C(O)c1cc(O)c2c(c1)[C@H]([C@H]1c3cc(C(=O)O)cc(O)c3C(=O)c3c(O[C@@H]4O[C@H](CO)[C@@H](O)[C@H](O)[C@H]4O)cccc31)c1cccc(O[C@@H]3O[C@H](CO)[C@@H](O)[C@H](O)[C@H]3O)c1C2=O [Sennoside A] ?
Response line: 105.5 ± 4.4%

Prompt line: Then what about the molecule "C=CC(C)(C)c1cc(/C=C/C(=O)c2ccc(O)cc2)c(OC)cc1O" ?
Response line: 202.7 ± 7.1%

Prompt line: Then what about the molecule COC(=O)[C@]12OC[C@@]34[C@@H](CC5=C(C)C(=O)C(O)=C[C@]5(C)[C@H]3[C@@H](O)[C@@H]1O)OC(=O)[C@H](OC(=O)CC(C)C)[C@@H]24 [Dehydrobruceine A] ?
Response line: 133.8 ± 14.5%

Prompt line: Then what about the molecule O=C1c2c(O)cccc2C([C@@H]2O[C@H](CO)[C@@H](O)[C@H](O)[C@H]2O)c2cc(CO)cc(O)c21 (some centres unmarked) ?
Response line: 108.3 ± 5.0%
